# Test system: L1210 leukemia ip in BDF1 mice, survival T/C
# Method Summary: NCI In Vivo Anticancer Drug Screen. Data for tumor model L1210 Leukemia (intraperitoneal) in B6D2F1 (BDF1) mice
# Conditions: endpoint: mean survival time; dose: 400.0 mg/kg/injection; schedule: Q01DX001 (ip); vehicle: saline; higher = longer survival
Inconclusive results and toxic doses are left out.
Quick reference for T/C among some compounds
Measured Property: T/C

O=C(O)CNc1cc(S(=O)(=O)O)cc2cc(S(=O)(=O)O)c(N=Nc3ccc(S(=O)(=O)O)c4ccccc34)c(O)c12 | 98 % of control
COc1ccc(Br)c([N+](=O)[O-])c1 | 103 % of control
CCOC(Nc1ccc([N+](=O)[O-])cc1)C(=O)c1ccccc1 (stereo unspecified) | 100 % of control
O=c1c2cn[nH]c2nc2ccccn12 | 94 % of control
Cc1cc(=O)c2cc(C(=O)c3ccccc3)ccc2[nH]1 | 107 % of control
O=C(O)/C=C/c1ccccc1Br | 97 % of control
